# assay_summary: Selectivity index, ratio of Ki for ERalpha (unknown origin) to Ki for ERbeta (unknown origin)
Decide using Ratio Ki alone. Strictly below 8: MET. Equal to or above 8: NOT MET.

Worked examples follow.
CCN(c1ccc(OCCCCCC(=O)N[C@H](C(=O)N2C[C@H](O)C[C@H]2C(=O)NCc2ccc(-c3scnc3C)cc2)C(C)(C)C)cc1)S(=O)(=O)C1CC2OC1C(c1ccc(O)cc1)=C2c1ccc(O)cc1 (some centres not stated)
MET
CCN(c1ccc(OC)cc1)S(=O)(=O)C1CC2OC1C(c1ccc(O)cc1)=C2c1ccc(O)cc1 (configuration not stated)
NOT MET
CCN(c1ccc(OCCCCC(=O)N[C@H](C(=O)N2C[C@H](O)C[C@H]2C(=O)NCc2ccc(-c3scnc3C)cc2)C(C)(C)C)cc1)S(=O)(=O)C1CC2OC1C(c1ccc(O)cc1)=C2c1ccc(O)cc1 (some centres not stated)
NOT MET
COc1ccc(N(CC(F)(F)F)S(=O)(=O)C2CC3OC2C(c2ccc(OCCCCCC(=O)N[C@H](C(=O)N4C[C@H](O)C[C@H]4C(=O)N[C@@H](C)c4ccc(-c5scnc5C)cc4)C(C)(C)C)cc2)=C3c2ccc(O)cc2)cc1 (some centres not stated)
NOT MET
O=C(COc1ccc(C2CCC(=O)NC2=O)cc1)NCCCCCCNC(=O)COc1ccc(N(CC(F)(F)F)S(=O)(=O)C2CC3OC2C(c2ccc(O)cc2)=C3c2ccc(O)cc2)cc1 (configuration not stated)
MET
O=C(COc1cccc2c1C(=O)N(C1CCC(=O)NC1=O)C2=O)NCCCCOc1ccc(N(CC(F)(F)F)S(=O)(=O)C2CC3OC2C(c2ccc(O)cc2)=C3c2ccc(O)cc2)cc1 (configuration not stated)
MET

Switching to the query record.
Determine whether this compound shows Ratio Ki lower than 8 (ties excluded): Cc1ncsc1-c1ccc(CNC(=O)[C@@H]2C[C@@H](O)CN2C(=O)[C@@H](NC(=O)CCCCCOc2ccc(N(CC(F)(F)F)S(=O)(=O)C3CC4OC3C(c3ccc(O)cc3)=C4c3ccc(O)cc3)cc2)C(C)(C)C)cc1 (some centres not stated)
MET

----------
# assay_summary: Selectivity index, ratio of Ki for ERalpha (unknown origin) to Ki for ERbeta (unknown origin)
Would you mind telling me the reported Ratio Ki of each entry?

CCN(c1ccc(OCCCCCC(=O)N[C@H](C(=O)N2C[C@H](O)C[C@H]2C(=O)N[C@@H](C)c2ccc(-c3scnc3C)cc2)C(C)(C)C)cc1)S(=O)(=O)C1CC2OC1C(c1ccc(O)cc1)=C2c1ccc(O)cc1 (stereo not given in full)
5.16
CCN(c1ccc(OCCCCCCC(=O)N[C@H](C(=O)N2C[C@H](O)C[C@H]2C(=O)N[C@@H](C)c2ccc(-c3scnc3C)cc2)C(C)(C)C)cc1)S(=O)(=O)C1CC2OC1C(c1ccc(O)cc1)=C2c1ccc(O)cc1 (stereo not given in full)
5.53
CCN(c1ccc(OCCCCCCCC(=O)N[C@H](C(=O)N2C[C@H](O)C[C@H]2C(=O)NCc2ccc(-c3scnc3C)cc2)C(C)(C)C)cc1)S(=O)(=O)C1CC2OC1C(c1ccc(O)cc1)=C2c1ccc(O)cc1 (stereo not given in full)
10.4
CCN(c1ccc(OCCCCCC(=O)N[C@H](C(=O)N2C[C@@H](O)C[C@H]2C(=O)N[C@@H](C)c2ccc(-c3scnc3C)cc2)C(C)(C)C)cc1)S(=O)(=O)C1CC2OC1C(c1ccc(O)cc1)=C2c1ccc(O)cc1 (stereo not given in full)
3.15

Would you kindly look at the next entry?
Supply recorded Ratio Ki for Cc1ncsc1-c1ccc([C@H](C)NC(=O)[C@@H]2C[C@@H](O)CN2C(=O)[C@@H](NC(=O)CCCCCOc2ccc(N(CC(F)(F)F)S(=O)(=O)C3CC4OC3C(c3ccc(O)cc3)=C4c3ccc(O)cc3)cc2)C(C)(C)C)cc1 (stereo not given in full) here.
5.16

----------
Sequence of the target: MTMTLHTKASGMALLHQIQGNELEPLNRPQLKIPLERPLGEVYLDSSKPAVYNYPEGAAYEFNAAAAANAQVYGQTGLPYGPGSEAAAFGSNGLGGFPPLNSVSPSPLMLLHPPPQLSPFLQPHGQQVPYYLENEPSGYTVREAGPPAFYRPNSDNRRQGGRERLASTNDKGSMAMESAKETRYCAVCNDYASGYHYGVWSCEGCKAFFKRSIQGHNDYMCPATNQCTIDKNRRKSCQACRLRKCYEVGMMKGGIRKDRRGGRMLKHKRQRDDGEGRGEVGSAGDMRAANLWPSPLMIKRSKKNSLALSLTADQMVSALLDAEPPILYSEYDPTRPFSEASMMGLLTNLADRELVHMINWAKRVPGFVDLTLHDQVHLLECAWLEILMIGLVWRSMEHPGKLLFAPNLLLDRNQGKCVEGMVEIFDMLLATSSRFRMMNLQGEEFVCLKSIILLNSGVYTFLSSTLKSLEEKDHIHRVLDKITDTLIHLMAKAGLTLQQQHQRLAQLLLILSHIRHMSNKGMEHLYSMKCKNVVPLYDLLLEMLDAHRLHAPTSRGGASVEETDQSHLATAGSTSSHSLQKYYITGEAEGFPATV
Would you mind telling me the reported Ki of each entry?
Give bare numbers, in µM.

Sample answers from the record:
COc1ccc(N(CC(F)(F)F)S(=O)(=O)C2CC3OC2C(c2ccc(OCCCCCC(=O)N[C@H](C(=O)N4C[C@H](O)C[C@H]4C(=O)N[C@@H](C)c4ccc(-c5scnc5C)cc4)C(C)(C)C)cc2)=C3c2ccc(O)cc2)cc1 (stereo not given in full)
2.54
CCN(c1ccc(OCCCCCC(=O)N[C@H](C(=O)N2C[C@H](O)C[C@H]2C(=O)NCc2ccc(-c3scnc3C)cc2)C(C)(C)C)cc1)S(=O)(=O)C1CC2OC1C(c1ccc(O)cc1)=C2c1ccc(O)cc1 (stereo not given in full)
1.85
O=C(COc1cccc2c1C(=O)N(C1CCC(=O)NC1=O)C2=O)NCCCCCCCCOc1ccc(N(CC(F)(F)F)S(=O)(=O)C2CC3OC2C(c2ccc(O)cc2)=C3c2ccc(O)cc2)cc1 (stereo not given)
1.45

Look up Ki for the entries below, preserving their order.
1. CCN(c1ccc(OCCCCC(=O)N[C@H](C(=O)N2C[C@H](O)C[C@H]2C(=O)NCc2ccc(-c3scnc3C)cc2)C(C)(C)C)cc1)S(=O)(=O)C1CC2OC1C(c1ccc(O)cc1)=C2c1ccc(O)cc1 (stereo not given in full)
2. CCN(c1ccc(OCCCCC(=O)N[C@H](C(=O)N2C[C@H](O)C[C@H]2C(=O)N[C@@H](C)c2ccc(-c3scnc3C)cc2)C(C)(C)C)cc1)S(=O)(=O)C1CC2OC1C(c1ccc(O)cc1)=C2c1ccc(O)cc1 (stereo not given in full)

0.73
1.27

----------
Parameter 'readout' = log10 Ki; parameter 'system' = Estrogen receptor beta (Homo sapiens).
Sequence (Q92731 whole entry): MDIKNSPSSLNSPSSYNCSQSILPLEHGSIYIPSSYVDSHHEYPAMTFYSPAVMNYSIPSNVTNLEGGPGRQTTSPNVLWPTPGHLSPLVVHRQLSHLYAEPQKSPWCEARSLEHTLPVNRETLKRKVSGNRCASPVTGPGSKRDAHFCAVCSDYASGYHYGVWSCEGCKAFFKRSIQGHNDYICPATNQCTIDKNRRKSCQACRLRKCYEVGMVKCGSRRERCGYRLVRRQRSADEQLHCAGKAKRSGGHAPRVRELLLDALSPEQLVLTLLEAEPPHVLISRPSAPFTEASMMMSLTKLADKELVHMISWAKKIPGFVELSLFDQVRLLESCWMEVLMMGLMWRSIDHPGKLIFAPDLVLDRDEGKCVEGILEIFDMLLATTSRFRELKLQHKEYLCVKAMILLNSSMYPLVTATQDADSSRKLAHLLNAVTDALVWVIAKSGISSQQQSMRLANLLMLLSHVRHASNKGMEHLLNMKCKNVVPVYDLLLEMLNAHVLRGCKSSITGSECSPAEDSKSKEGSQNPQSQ
Reminder: these figures are log10 of reported Ki, in µM before transformation.

Sample answers from the record:
CCN(c1ccc(OCCCCCC(=O)N[C@H](C(=O)N2C[C@@H](O)C[C@H]2C(=O)N[C@@H](C)c2ccc(-c3scnc3C)cc2)C(C)(C)C)cc1)S(=O)(=O)C1CC2OC1C(c1ccc(O)cc1)=C2c1ccc(O)cc1 (stereo not given in full)
0.69
O=C(COc1ccc(C2CCC(=O)NC2=O)cc1)NCCCCNC(=O)COc1ccc(N(CC(F)(F)F)S(=O)(=O)C2CC3OC2C(c2ccc(O)cc2)=C3c2ccc(O)cc2)cc1 (stereo not given)
0.64
O=C(COc1cccc2c1C(=O)N(C1CCC(=O)NC1=O)C2=O)NCCCCCCOc1ccc(N(CC(F)(F)F)S(=O)(=O)C2CC3OC2C(c2ccc(O)cc2)=C3c2ccc(O)cc2)cc1 (stereo not given)
0.90
CCN(c1ccc(OCCCCC(=O)N[C@H](C(=O)N2C[C@H](O)C[C@H]2C(=O)NCc2ccc(-c3scnc3C)cc2)C(C)(C)C)cc1)S(=O)(=O)C1CC2OC1C(c1ccc(O)cc1)=C2c1ccc(O)cc1 (stereo not given in full)
0.78
O=C(COc1cccc2c1C(=O)N(C1CCC(=O)NC1=O)C2=O)NCCCCOc1ccc(N(CC(F)(F)F)S(=O)(=O)C2CC3OC2C(c2ccc(O)cc2)=C3c2ccc(O)cc2)cc1 (stereo not given)
1.05
CCN(c1ccc(OCCCCCCCC(=O)N[C@H](C(=O)N2C[C@H](O)C[C@H]2C(=O)NCc2ccc(-c3scnc3C)cc2)C(C)(C)C)cc1)S(=O)(=O)C1CC2OC1C(c1ccc(O)cc1)=C2c1ccc(O)cc1 (stereo not given in full)
0.90
CCN(c1ccc(OCCCCCCCCC(=O)N[C@H](C(=O)N2C[C@H](O)C[C@H]2C(=O)NCc2ccc(-c3scnc3C)cc2)C(C)(C)C)cc1)S(=O)(=O)C1CC2OC1C(c1ccc(O)cc1)=C2c1ccc(O)cc1 (stereo not given in full)
1.05
CCN(c1ccc(OCCCCCCC(=O)N[C@H](C(=O)N2C[C@H](O)C[C@H]2C(=O)NCc2ccc(-c3scnc3C)cc2)C(C)(C)C)cc1)S(=O)(=O)C1CC2OC1C(c1ccc(O)cc1)=C2c1ccc(O)cc1 (stereo not given in full)
0.82
Cc1ncsc1-c1ccc([C@H](C)NC(=O)[C@@H]2C[C@@H](O)CN2C(=O)[C@@H](NC(=O)CCCCCOc2ccc(N(CC(F)(F)F)S(=O)(=O)C3CC4OC3C(c3ccc(O)cc3)=C4c3ccc(O)cc3)cc2)C(C)(C)C)cc1 (stereo not given in full)
1.42
CCN(c1ccc(OC)cc1)S(=O)(=O)C1CC2OC1C(c1ccc(O)cc1)=C2c1ccc(O)cc1 (stereo not given)
0.40

Look up log10 Ki for the entries below, preserving their order.
1. CCN(c1ccc(OCCCCCC(=O)Nc2cccc3c2C(=O)N(C2CCC(=O)NC2=O)C3=O)cc1)S(=O)(=O)C1CC2OC1C(c1ccc(O)cc1)=C2c1ccc(O)cc1 (stereo not given)
2. CCN(c1ccc(OCCCCCCCCCC(=O)N[C@H](C(=O)N2C[C@H](O)C[C@H]2C(=O)NCc2ccc(-c3scnc3C)cc2)C(C)(C)C)cc1)S(=O)(=O)C1CC2OC1C(c1ccc(O)cc1)=C2c1ccc(O)cc1 (stereo not given in full)
3. CCN(c1ccc(OCCCCCCC(=O)N[C@H](C(=O)N2C[C@H](O)C[C@H]2C(=O)N[C@@H](C)c2ccc(-c3scnc3C)cc2)C(C)(C)C)cc1)S(=O)(=O)C1CC2OC1C(c1ccc(O)cc1)=C2c1ccc(O)cc1 (stereo not given in full)
4. CCN(c1ccc(OCCCCC(=O)N[C@H](C(=O)N2C[C@H](O)C[C@H]2C(=O)N[C@@H](C)c2ccc(-c3scnc3C)cc2)C(C)(C)C)cc1)S(=O)(=O)C1CC2OC1C(c1ccc(O)cc1)=C2c1ccc(O)cc1 (stereo not given in full)

[0.64, 0.99, 1.05, 0.85]

Look up log10 Ki for the entries below, preserving their order.
1. O=C(COc1cccc2c1C(=O)N(C1CCC(=O)NC1=O)C2=O)NCCCCCCCCOc1ccc(N(CC(F)(F)F)S(=O)(=O)C2CC3OC2C(c2ccc(O)cc2)=C3c2ccc(O)cc2)cc1 (stereo not given)
2. Cc1ncsc1-c1ccc(CNC(=O)[C@@H]2C[C@@H](O)CN2C(=O)[C@@H](NC(=O)CCCCCOc2ccc(N(CC(F)(F)F)S(=O)(=O)C3CC4OC3C(c3ccc(O)cc3)=C4c3ccc(O)cc3)cc2)C(C)(C)C)cc1 (stereo not given in full)
3. O=C(COc1ccc(C2CCC(=O)NC2=O)cc1)NCCNC(=O)COc1ccc(N(CC(F)(F)F)S(=O)(=O)C2CC3OC2C(c2ccc(O)cc2)=C3c2ccc(O)cc2)cc1 (stereo not given)

1. 0.69
2. 1.29
3. 0.69

Look up log10 Ki for the entries below, preserving their order.
1. COc1ccc(N(CC(F)(F)F)S(=O)(=O)C2CC3OC2C(c2ccc(OCCCCCC(=O)N[C@H](C(=O)N4C[C@H](O)C[C@H]4C(=O)N[C@@H](C)c4ccc(-c5scnc5C)cc4)C(C)(C)C)cc2)=C3c2ccc(O)cc2)cc1 (stereo not given in full)
2. CCN(c1ccc(OCCCCCC(=O)N[C@H](C(=O)N2C[C@H](O)C[C@H]2C(=O)NCc2ccc(-c3scnc3C)cc2)C(C)(C)C)cc1)S(=O)(=O)C1CC2OC1C(c1ccc(O)cc1)=C2c1ccc(O)cc1 (stereo not given in full)

1. 1.42
2. 0.99

GET log10 Ki where system = Estrogen receptor beta (Homo sapiens) and item = COc1ccc(N(CC(F)(F)F)S(=O)(=O)C2CC3OC2C(c2ccc(OCCCCCC(=O)N[C@H](C(=O)N4C[C@H](O)C[C@H]4C(=O)NCc4ccc(-c5scnc5C)cc4)C(C)(C)C)cc2)=C3c2ccc(O)cc2)cc1 (stereo not given in full)
1.05

Reference source for all entries: ChEMBL document CHEMBL5338775
